- experiment summary: Aqueous solubility by laser nephelometry
- Assay type: physicochemical
- condition summary: pH 2, simulated gastric fluid, kinetic from dmso stock; pH2 buffer, 1% DMSO, 30 minute incubation at 25° C., range 1.6-100; read-out: Solubility at pH2
# Lookup of reported solubility at 30 min keyed by entry

Worked set:
[
  {
    "compound": "Cc1nocc1C(=O)N1CCN2C(=O)c3nccnc3C[C@]12c1ccc(F)cc1 (single isomer, unassigned)",
    "recorded value": "> 100 µg/mL"
  },
  {
    "compound": "O=C(c1ccno1)N1CCN2C(=O)c3cccc(F)c3CC12c1ccc(Cl)cc1 (stereo not drawn) [Compound 1-088, reference compound]",
    "recorded value": "3.1 to 6.3 µg/mL"
  }
]

Field: next compound
For reference, reported solubility at 30 min for Cc1nocc1C(=O)N1CCN2C(=O)c3ncccc3CC12c1ccc2c(c1)CCO2 (stereo not drawn) stands at > 100 µg/mL
